# targetOfAssay: Dihydrofolate reductase (Mus musculus, UniProt P00375)
# Sequence (P00375 whole entry): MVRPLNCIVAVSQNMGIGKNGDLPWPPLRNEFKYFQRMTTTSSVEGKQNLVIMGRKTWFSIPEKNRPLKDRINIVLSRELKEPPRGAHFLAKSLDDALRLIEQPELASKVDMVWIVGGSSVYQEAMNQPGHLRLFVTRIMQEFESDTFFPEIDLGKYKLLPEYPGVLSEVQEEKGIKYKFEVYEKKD
# procedureDetails: Inhibitory constant for murine Wild-type dihydrofolate reductase (DHFR)
testReadout: Ki (nM)

- COc1cc(NCc2ccc3nc(N)nc(N)c3c2C)cc(OC)c1OC [TRIMETREXATE]: 0.06
